# protocol: soluble on expression in E. coli; label from the status in PepcDB or PDB records
endpointLabel: soluble on expression in E. coli

sequenceInput	endpointLabel	dataValue
MGSDKIHHHHHHMMLRASYGTIRKVNGNSSLEMDTAYLMLGERCVYNCLYCAQSRSSTSPSHFLSRVTWKEVSEDLLGKLNDRFKRVCIQVVSYPSYGKDLRLIIPRFRIPVSVSVRAVSIEEVVEYFELGADRVGIAVDVPNKTLFEKIRGGKYERHLHILEKVSEMFPGRITTHVIVGLGESDKDIVDFTVWARERNIVVSLFAFTPIKGTAFENRERPSLERYRKIQLVTYLLEKNLIKPENIIFDSNGKIIDVEWNGEFPEEALRTRGCPHCTRPYYNESPRGPIYNVHWR	soluble on expression in E. coli	not soluble
MGHHHHHHSHMDNAEAQFTTALRLTNHQELWAFIVTNLASVYIREGNRHQEVLYSLLERINPDHSFPVSSHCLRAAAFYVRGLFSFFQGRYNEAKRFLRETLKMSNAEDLNRLTACSLVLLGHIFYVLGNHRESNNMVVPAMQLASKIPDMSVQLWSSALLRDLNKACGNAMDAHEAAQMHQNFSQQLLQDHIEACSLPEHNLITWTDGPPPVQFQAQNGPNTSLASLL	soluble on expression in E. coli	not soluble
MSTHFGYKTVEADKKADLVAGVFHSVAAKYDIMNDVMSFGIHRFWKRYTIEVSGARPGMKVLDLAGGTGDLTAKFSHLVGDKGEVVLADINDSMLKVGRTKLRDRGIVSNVSYVQANAEALPFPDNHFDIITIAFGLRNVTDKDAALRSMNRVLKPGGKLLVLEFSKPQHEVMRKVYDLYSFKVLPKMGQLITKDADSYEYLAESIRMHPDQDTLKQMMVDAGFEQVDYTNMTDGIVALHRGYKLEHHHHHH	soluble on expression in E. coli	not soluble

Origin of the recorded values: the DeepSol protein solubility set
